# Test system: SW480
# experimental_protocol: Cytotoxicity against human SW480 cells after 48 hrs by MTT assay
# Format: functional, cell-based
# conditions: SW480, 48 h
property_name: pIC50
Units for pIC50: none; it is -log10 of a concentration expressed in mol/L.

C=C1C(=O)[C@]23[C@H](O)[C@H]1CC[C@H]2[C@@]12CO[C@@]3(O)[C@@H](O)[C@@H]1C(C)(C)CC[C@@H]2OC(C)=O : 5.62
C=C1C(=O)[C@]23[C@H](O)[C@H]1C[C@@H](O)[C@H]2[C@]12CCCC(C)(C)[C@H]1[C@H](O)[C@@]3(O)OC2 : 5.60
C=C1C(=O)[C@@]23[C@@H]4OC(C)(C)O[C@@]25OC[C@]2(CCCC(C)(C)[C@H]2[C@@H]5O)[C@@H]3[C@@H](O)C[C@@H]14 : 5.70
C=C1C(=O)[C@]23[C@H](OC(C)=O)[C@H]1C[C@H](OC(C)=O)[C@H]2[C@]12CCCC(C)(C)[C@H]1[C@H](O)[C@]3(O)OC2 : 5.49

Let us examine a further case.
## Task Tell me measured pIC50 for `C=C1C(=O)[C@]23C[C@H]1CC=C2[C@@]12CO[C@@]3(O)[C@@H](O)[C@@H]1C(C)(C)CC[C@@H]2O` please.
## Result 5.47
